target: human IgG
testSummary: Microscale Thermophoresis (MST) with IgG-FITC
Assay type: binding
measurementConditions: E6; IgG-FITC 50 nM, E6 23.5 µM to 0.7 nM, 50 mM MOPS 0.05% (v/v) Tween-20 pH 7, 25 °C, n = 4; read-out: dissociation constant, KD
readoutType: Kd (nM)

>  <constructSequence>
SMGLPPGWDEYKT RRFKL GKTYYYNH HILS KTSTWTDPRMSS [Clone E6]

>  <target>
human IgG

>  <readoutValue>
133

$$$$
